Test system: BHK-21
Assay: Cytotoxicity against golden hamster BHK21-RepZIKV_IRES-Neo cells assessed as reduction in cell viability measured after 72 hrs by MTT assay
Type: toxicity, cell-based, Mesocricetus auratus
Conditions: bhk-21, 72 h
measuredParameter: Activity

Solved cases below.
>  <smilesNotation>
COc1ccc(S(=O)(=O)Nc2ccc(C(=O)Nc3nc4ccccc4s3)cc2)cc1

>  <targetSystem>
BHK-21

>  <Activity>
Non-Toxic

$$$$
>  <smilesNotation>
O=C(Nc1nc2ccccc2s1)c1ccc(NS(=O)(=O)c2ccc([N+](=O)[O-])cc2)cc1

>  <targetSystem>
BHK-21

>  <Activity>
Non-Toxic

$$$$
>  <smilesNotation>
O=C(Nc1nc2ccccc2s1)c1ccc(NS(=O)(=O)c2ccc(Br)cc2)cc1

>  <targetSystem>
BHK-21

>  <Activity>
Non-Toxic

$$$$
>  <smilesNotation>
COc1cc(Cl)ccc1S(=O)(=O)Nc1ccc(C(=O)Nc2nc3ccccc3s2)cc1

>  <targetSystem>
BHK-21

>  <Activity>
Non-Toxic

$$$$

The compound identified as COc1ccc(S(=O)(=O)Nc2cccc(C(=O)Nc3nc4ccccc4s3)c2)cc1 registered its Activity at Non-Toxic

The compound identified as COc1ccc(S(=O)(=O)Nc2ccccc2C(=O)Nc2nc3ccccc3[nH]2)cc1 registered its Activity at Non-Toxic

The compound identified as COc1ccc(S(=O)(=O)Nc2ccccc2C(=O)Nc2nccs2)cc1 registered its Activity at Non-Toxic

---

Assay: Cytotoxicity against African green monkey Vero E6 cells assessed as reduction in cell viability measured after 72 hrs by MTT assay
Format: toxicity, cell-based, Vero C1008
Conditions: chlorocebus sabaeus
measuredParameter: CC50 at 72 h (µM)
Unit µM implied. Number only.

The compound identified as CC(C)(C)OC(=O)NCC(=O)Nc1nc2ccccc2s1 registered its CC50 at 72 h at 79

The compound identified as COc1cc(Cl)ccc1S(=O)(=O)Nc1ccc(C(=O)Nc2nc3ccccc3s2)cc1 registered its CC50 at 72 h at 23.9

The compound identified as COc1ccc(S(=O)(=O)Nc2cccc(C(=O)Nc3nc4ccccc4s3)c2)cc1 registered its CC50 at 72 h at 128

The compound identified as O=C(Nc1nc2ccccc2s1)c1ccc(NS(=O)(=O)c2ccc(Br)cc2)cc1 registered its CC50 at 72 h at 45.8

The compound identified as O=C(Nc1nc2ccccc2s1)c1ccc(NS(=O)(=O)c2ccc([N+](=O)[O-])cc2)cc1 registered its CC50 at 72 h at 30.2

---

measuredParameter: IC50 (µM)
Unit µM implied. Number only.

Tested on Nonstructural protein 3 (Zika virus): COc1ccc(S(=O)(=O)Nc2ccc(C(=O)Nc3nc4ccccc4s3)cc2)cc1 . Observed IC50: 5.2

---

Experiment: Cytotoxicity against African green monkey Vero E6 cells assessed as reduction in cell viability measured after 72 hrs by MTT assay
Assay type: toxicity, cell-based, Vero C1008
Settings: chlorocebus sabaeus
measuredParameter: CC50 at 72 h (µM)
Unit µM implied. Number only.

The compound identified as COc1ccc(S(=O)(=O)Nc2ccccc2C(=O)Nc2nc3ccccc3[nH]2)cc1 registered its CC50 at 72 h at 56.5

The compound identified as COc1ccc(S(=O)(=O)Nc2ccc(C(=O)Nc3nc4ccccc4s3)cc2)cc1 registered its CC50 at 72 h at 13.3

The compound identified as COc1ccc(S(=O)(=O)Nc2ccccc2C(=O)Nc2nccs2)cc1 registered its CC50 at 72 h at 38.7

Sourced from ChEMBL document CHEMBL5390225
